# Measured target: D(2) dopamine receptor (Homo sapiens)
# Sequence (P14416 whole entry): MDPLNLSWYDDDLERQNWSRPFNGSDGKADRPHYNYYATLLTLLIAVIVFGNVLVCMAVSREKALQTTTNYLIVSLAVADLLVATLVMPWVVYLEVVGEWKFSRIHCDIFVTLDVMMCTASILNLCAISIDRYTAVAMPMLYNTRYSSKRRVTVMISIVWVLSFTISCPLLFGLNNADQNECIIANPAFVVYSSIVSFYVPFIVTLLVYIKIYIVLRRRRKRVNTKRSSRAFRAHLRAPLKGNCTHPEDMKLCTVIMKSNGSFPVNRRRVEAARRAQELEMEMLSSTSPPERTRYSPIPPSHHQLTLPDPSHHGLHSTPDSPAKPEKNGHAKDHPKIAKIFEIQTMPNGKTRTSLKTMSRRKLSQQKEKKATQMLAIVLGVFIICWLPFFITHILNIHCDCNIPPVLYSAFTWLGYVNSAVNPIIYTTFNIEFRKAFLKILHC
# Experimental protocol: Binding affinity at human Dopamine receptor D2 by [3H]- YM 09151 displacement; Not active.
Quantity name: Ki

compound=CCOC(=O)C(Cc1ccccc1N)(C(=O)OCC)N1CCN(Cc2ccc(Cl)cc2)CC1 experimental_value="Not Active"
compound="CCOC(=O)C1(N2CCN(Cc3ccc(Cl)cc3)CC2)Cc2ccccc2NC1=O (stereo unspecified)" experimental_value="Not Active"
compound=Fc1ccc(OC[C@@H]2CC[C@H]3CN(c4ncc(F)cn4)CCN3C2)cc1 experimental_value="Not Active"
compound=CCOC(=O)C(Cc1ccccc1[N+](=O)[O-])(C(=O)OCC)N1CCN(Cc2ccc(Cl)cc2)CC1 experimental_value="Not Active"
compound="O=C1Nc2ccccc2CCC1I (stereo unspecified)" experimental_value="Not Active"

// batch mode: one Ki value per listed entry
1. CCOC(=O)C(C(=O)OCC)N1CCN(Cc2ccc(Cl)cc2)CC1
2. Clc1ccc(N2CCN(Cc3c[nH]c4ncccc34)CC2)cc1
3. NS(=O)(=O)c1ccc(N2CCN(CC[C@@H]3OCCc4ccccc43)CC2)cc1 [SONEPIPRAZOLE]
4. O=C1Nc2ccccc2C1Cl (stereo unspecified)
5. Cc1cnc(N2CCN(Cc3c[nH]c(-c4ccccc4)n3)CC2)nc1
6. Clc1ccc(CN2CCNCC2)cc1

**A:**
["Not Active", "Not Active", "Not Active", "Not Active", "Not Active", "Not Active"]
